Origin of measurements: patent US20240228489A1

Reported pEC50 values follow for various compounds
Biological target: human mAChR M1 (Homo sapiens, UniProt P11229)
Sequence (P11229 1-460): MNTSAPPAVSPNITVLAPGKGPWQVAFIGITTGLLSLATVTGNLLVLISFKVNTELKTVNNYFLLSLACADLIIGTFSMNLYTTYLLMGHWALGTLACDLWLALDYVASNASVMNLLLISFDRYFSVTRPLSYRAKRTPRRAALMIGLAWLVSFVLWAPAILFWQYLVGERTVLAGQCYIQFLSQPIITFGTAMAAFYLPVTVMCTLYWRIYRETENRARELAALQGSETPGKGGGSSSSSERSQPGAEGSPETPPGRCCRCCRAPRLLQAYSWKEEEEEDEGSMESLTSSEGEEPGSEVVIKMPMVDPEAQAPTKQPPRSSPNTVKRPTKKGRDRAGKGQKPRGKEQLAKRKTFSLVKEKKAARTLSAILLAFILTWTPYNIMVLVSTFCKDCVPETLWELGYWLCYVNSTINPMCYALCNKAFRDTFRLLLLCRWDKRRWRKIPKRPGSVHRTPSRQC
Experiment: mAChR M1 cell-based functional assay (calcium mobilization), PAM mode: increase in the EC20 acetylcholine response
A value of pEC50 is the negative decimal logarithm of a concentration given in moles per litre.

[2H]C1([2H])c2ncccc2C(=O)N1Cc1ccc(-c2cc(C)c3nn(C)cc3c2)cc1	6.07
[2H]C1([2H])c2ncccc2C(=O)N1Cc1c(F)cc(-c2ccc(OC3CC3)c3nn(C)cc23)cc1F	6.61

[ask] Can you look up the measured pEC50 of [2H]C1([2H])c2ncccc2C(=O)N1Cc1c(C)cc(-c2ccc(F)c3nn(C)cc23)cc1F for me?
[reply] 6.46

----------
molecular target: human mAChR M1 (Homo sapiens, UniProt P11229); assay: mAChR M1 cell-based functional assay (calcium mobilization), PAM mode: increase in the EC20 acetylcholine response
experimentalEndpoint: Emax (%)
Write the answer as a number in %, unit excluded.

[2H]C1([2H])c2ncc(OCCc3ccccn3)cc2C(=O)N1Cc1c(F)cc(-c2cccc3nn(C([2H])([2H])[2H])cc23)cc1F [Compound 126]	65

[ask] Can you look up the measured Emax of [2H]C1([2H])c2ncccc2C(=O)N1Cc1ccc(-c2ccc(OC)c3nn(C([2H])([2H])[2H])cc23)cc1F [Compound 55] for me?
[reply] 88

[ask] Can you look up the measured Emax of [2H]C([2H])([2H])Oc1ccc(-c2cc(F)c(CN3C(=O)c4cccnc4C3([2H])[2H])c(F)c2)c2cn(C([2H])([2H])[2H])nc12 [Compound 94] for me?
[reply] 76

[ask] Can you look up the measured Emax of [2H]C1([2H])c2ncccc2C(=O)N1Cc1c(F)cc(-c2ccc(OCC3CC3)c3nn(C)cc23)cc1F [Compound 138] for me?
[reply] 75

----------
Reported EC50 values follow for various compounds
target: human mAChR M1 (Homo sapiens, UniProt P11229); experiment: mAChR M1 cell-based functional assay (calcium mobilization), agonist mode: compound alone, Emax relative to acetylcholine maximum; conditions: human mAChR M1

[2H]C1([2H])c2ncccc2C(=O)N1Cc1ccc(-c2ccc(C)c3nn(C)cc23)cc1C	> 10 µM

[ask] Can you look up the measured EC50 of [2H]C1([2H])c2ncccc2C(=O)N1Cc1c(F)cc(-c2ccc(OCCOC(C)C)c3nn(C)cc23)cc1F for me?
[reply] ≥ 10 µM

[ask] Can you look up the measured EC50 of [2H]C1([2H])c2ncccc2C(=O)N1Cc1c(F)cc(-c2cccc3nn(C(C)C)cc23)cc1F for me?
[reply] > 10 µM

[ask] Can you look up the measured EC50 of [2H]C1([2H])c2ncccc2C(=O)N1Cc1c(F)cc(-c2ccc(OC3CCC3)c3nn(C)cc23)cc1F for me?
[reply] ≥ 10 µM

[ask] Can you look up the measured EC50 of [2H]C1([2H])c2ncccc2C(=O)N1Cc1c(F)cc(-c2ccc(OCC3CCCO3)c3nn(C)cc23)cc1F (stereo not drawn) for me?
[reply] ≥ 10 µM

[ask] Can you look up the measured EC50 of [2H]C1([2H])c2ncccc2C(=O)N1Cc1c(F)cc(-c2cccn3nc(C)cc23)cc1F for me?
[reply] > 10 µM
